Data provenance is patent EP4702986A1.

Tested system: human ETB receptor (Homo sapiens)
Construct: expressed in transfected cells; host or cells: 293T-17 cells, transient transfection
Sequence (P24530 27-442): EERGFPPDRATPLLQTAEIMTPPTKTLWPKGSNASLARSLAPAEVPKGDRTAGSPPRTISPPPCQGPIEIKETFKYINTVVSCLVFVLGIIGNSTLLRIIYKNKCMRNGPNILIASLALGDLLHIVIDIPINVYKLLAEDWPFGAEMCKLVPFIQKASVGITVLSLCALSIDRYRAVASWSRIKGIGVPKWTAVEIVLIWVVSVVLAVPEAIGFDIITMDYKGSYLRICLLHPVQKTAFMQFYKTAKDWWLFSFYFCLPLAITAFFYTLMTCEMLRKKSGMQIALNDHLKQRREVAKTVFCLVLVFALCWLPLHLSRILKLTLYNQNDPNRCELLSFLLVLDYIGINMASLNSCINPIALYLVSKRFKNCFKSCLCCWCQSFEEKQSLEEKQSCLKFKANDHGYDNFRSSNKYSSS
Assay protocol: Screening of polypeptides for activity on human ETB receptor (IP-One Gq kit, % of positive control IRL1620)
Type: cell-based
Stated conditions: @10nM
Numbered stars: 1 amine (or outer) side, 2 acyl side, 3 side chain; on linkers, the order of the positions; unused ones are H or OH. Square brackets hold non-standard residues; d marks the D form. Side chains are listed from the residue outwards. Ends that are not written are not given here. * marks the point of attachment. C18 diacid = O=C(O)CCCCCCCCCCCCCCCCC(=O)*; γGlu = O=C(O)[C@H](CCC(=O)[*:2])N[*:1]; NMeL = CN[C@@H](CC(C)C)C(=O)O; Fumaroyl = O=C(O)/C=C/C(=O)*; AEEA = NCCOCCOCC(=O)O
Listed here are substances together with their documented hETBR agonist activity, percentage of activity relative to IRL1620.
Endpoint name: hETBR agonist activity, percentage of activity relative to IRL1620 (%@10nM)

substance="Fum-DEEAVYFAHL(N-Me)DI(N-Me)IW (Fumaroyl-DEEAVYFAH[NMeL]; not fully specified (C-terminus)) [BX-29]" recorded_result=15.61
substance="Fum-DEEAKYFAHK(-γE-AEEA-AEEA-ODDA)DVIW (Fumaroyl-DEEAKYFAHK([γGlu-AEEA-AEEA-C18 diacid])DVIW) [BX-108]" recorded_result=-1185.11
substance="Fum-DEEAVYFAHOrn(-AEEA-AEEA-γE-ODDA)DIIW [BX-51]" recorded_result=47.83
substance="Fum-D cyclo(EEAK)YFAHLD(2-Abu)IW [BX-64]" recorded_result=79.92
